# credit: patent US20250297232A1

Target: Rhodopirellula baltica RbMPO, wild type, SEQ ID NO: 1
Assay: Pre-steady-state kinetics: compound I formation and return to native state (stopped-flow, 412 nm)
Type: biochemical
Conditions: H2O2 excess; wt RbMPO 1.78 μM, 37° C., pH7.5; read-out: Ki (compound I formation)
pKi: −log10 of the molar value.
Quantity measured: pKi

compound="OO [H2O2, hydrogen peroxide]" obs_value=1.96

* * *

Molecular target: Rhodopirellula baltica RbMPO variant D202A, E316A (of SEQ ID NO: 1)
Conditions: read-out: Ki H2O2, E316A 1 μM, H2O2 range, 500 mM NaCl, 10 μM APF, 37° C., pH7.5
Quantity measured: Ki (mM)

compound="OO [H2O2, hydrogen peroxide]" tested_system="Rhodopirellula baltica RbMPO variant D202A, E316A (of SEQ ID NO: 1)" unit_abbrev=mM obs_value=96.3
